molecular target: KRAS G12C (Homo sapiens, UniProt P01116, G12C); experiment: SOS1-catalyzed KRAS coupled nucleotide exchange assay (Alpha technology); assay type: biochemical; set-up: His; key: A: KRAS G12C bound and modulated; conditions: inhibition of SOS1 mediated KRAS nucleotide exchange

# Molecule, KRAS-SOS1 Nucleotide Exchange
rows = [
    ("Cc1ccnc(C(C)C)c1-n1c(=O)nc(N2CC(NS(=O)(=O)c3c(F)c(F)c(F)c(F)c3C(F)(F)F)C2)c2cc(F)c(Cl)nc21 [Compound 13A]", "A"),
    ("C[C@H]1CN(c2c(F)c(F)c(F)c(F)c2[S+](C)[O-])CCN1c1ncnc2cc(-c3ccccc3F)c(Cl)cc12 (stereo partly drawn) [Compound 38A]", "A"),
    ("Cc1ccnc(C(C)C)c1-n1c(=O)nc(N2CCN(S(=O)(=O)c3c(F)c(F)c(F)c(F)c3OCF)C[C@@H]2C)c2cc(F)c(-c3c(O)cccc3F)nc21", "A"),
]

---

molecular target: KRAS G12C (SEQ ID NO:1 or SEQ ID NO:2) (Homo sapiens, UniProt P01116, G12C); construct: purchased; assay: Intact mass analysis (LC-MS) of covalent modification, KRAS G12C; assay type: binding; parameters: key: b: KRAS G12C modified; settings: intact mass spectrometry; covalent modification of KRAS G12C FL
Measurement Name: KRAS G12C Modification

# Compound, Experimental Value
rows = [
    ("Cc1cccc(C)c1-c1ccc2cc(CNS(=O)(=O)c3c(F)c(F)c(F)c(F)c3F)cnc2c1 [Compound 19A]", "b"),
    ("Cc1ccnc(C(C)C)c1-n1c(=O)nc(NC2CN(S(=O)(=O)c3c(F)c(F)c(F)c(F)c3C(F)(F)F)C2)c2cc(F)c(Cl)nc21 [Compound 14A]", "b"),
    ("Cc1ccnc(C(C)C)c1-n1c(=O)nc(N2CCN(S(=O)(=O)c3c(F)c(F)c(F)c(F)c3OC(F)F)C[C@@H]2C)c2cc(F)c(Cl)nc21 [Compound 12A]", "b"),
    ("Cc1ccnc(C(C)C)c1-n1c(=O)nc(N2CCN(S(=O)(=O)c3c(F)c(F)c(F)c(F)c3C(F)(F)F)C[C@@H]2C)c2cc(F)c(Cl)nc21 [Compound 11A]", "b"),
    ("Cc1ccnc(C(C)C)c1-n1c(=O)nc(N2CC(NS(=O)(=O)c3c(F)c(F)c(F)c(F)c3C(F)(F)F)C2)c2cc(F)c(Cl)nc21 [Compound 13A]", "b"),
    ("Cc1ccnc(C(C)C)c1-n1c(=O)nc(N2CCN(S(=O)(=O)c3c(F)c(F)c(F)c(F)c3OC(F)F)C[C@@H]2C)c2cc(F)c(-c3c(O)cccc3F)nc21 (single isomer, unassigned) [Compound 17A]", "b"),
]

---

tested on: phospho-ERK1/2 in MIA PaCa-2 cells (express KRAS G12C); test: ERK1/2 phosphorylation in MIA PaCa-2 cells; format: cell-based, human; set-up: key: X: KRAS G12C bound and modulated in cells
Measurement Name: pERK - MIA PaCa-2 - (6 hours, 5 uM)

# Molecule, Measurement Name, Experimental Value
rows = [
    ("C[C@H]1CN(Cc2c(F)c(F)c(F)c(F)c2[S+](C)[O-])CCN1c1ncnc2cc(-c3ccccc3F)c(Cl)cc12 (stereo partly drawn) [Compound 46A]", "pERK - MIA PaCa-2 - (6 hours, 5 uM)", "X"),
    ("Cc1ccnc(C(C)C)c1-n1c(=O)nc(NC2CN(S(=O)(=O)c3c(F)c(F)c(F)c(F)c3C(F)(F)F)C2)c2cc(F)c(-c3c(O)cccc3F)nc21 [Compound 15A]", "pERK - MIA PaCa-2 - (6 hours, 5 uM)", "X"),
    ("Cc1ccnc(C(C)C)c1-n1c(=O)nc(NS(=O)(=O)c2c(F)c(F)c(F)c(F)c2OCF)c2cc(F)c(-c3c(O)cccc3F)nc21 (atropisomer, axis not shown) [Compound 10A]", "pERK - MIA PaCa-2 - (6 hours, 5 uM)", "X"),
]
